List of shrunken log2 fold change values.
Test system: Escherichia coli TOP10
procedure-summary: shrunken log2 fold change of peptide-encoding DNA abundance (4.5 h post-induction vs induction); higher = less antimicrobial activity (less host growth inhibition)
condition-context: time post-induction: 4.5 h; library: site-saturation at positions 5, 18, 19, 20

Worked cases, answers included:
Name the value of shrunken log2 fold change reported for RRIRHRPPRLPRPRPRPWNEPRP when tested on Escherichia coli TOP10.
-0.171

Name the value of shrunken log2 fold change reported for RRIRTRPPRLPRPRPRPPVEPRP when tested on Escherichia coli TOP10.
0.0458

Name the value of shrunken log2 fold change reported for RRIRARPPRLPRPRPRPPDGPRP when tested on Escherichia coli TOP10.
1.3

Name the value of shrunken log2 fold change reported for RRIRARPPRLPRPRPRPNIWPRP when tested on Escherichia coli TOP10.
0.133

Name the value of shrunken log2 fold change reported for RRIRIRPPRLPRPRPRPMDDPRP when tested on Escherichia coli TOP10.
0.0135

Name the value of shrunken log2 fold change reported for RRIRWRPPRLPRPRPRPGSPPRP when tested on Escherichia coli TOP10.
0.0119

Name the value of shrunken log2 fold change reported for RRIRCRPPRLPRPRPRPVTWPRP when tested on Escherichia coli TOP10.
-0.417

Name the value of shrunken log2 fold change reported for RRIRDRPPRLPRPRPRPMTTPRP when tested on Escherichia coli TOP10.
-0.0624

Others:
Name the value of shrunken log2 fold change reported for RRIRFRPPRLPRPRPRPPFCPRP when tested on Escherichia coli TOP10.
0.0782

Name the value of shrunken log2 fold change reported for RRIRERPPRLPRPRPRPSYSPRP when tested on Escherichia coli TOP10.
-0.147

Name the value of shrunken log2 fold change reported for RRIRMRPPRLPRPRPRPGHHPRP when tested on Escherichia coli TOP10.
0.209

Name the value of shrunken log2 fold change reported for RRIRERPPRLPRPRPRPTSLPRP when tested on Escherichia coli TOP10.
-0.647

Name the value of shrunken log2 fold change reported for RRIRERPPRLPRPRPRPFAYPRP when tested on Escherichia coli TOP10.
0.155

Name the value of shrunken log2 fold change reported for RRIRFRPPRLPRPRPRPDWPPRP when tested on Escherichia coli TOP10.
-0.0836

Name the value of shrunken log2 fold change reported for RRIRCRPPRLPRPRPRPGLTPRP when tested on Escherichia coli TOP10.
0.108

Name the value of shrunken log2 fold change reported for RRIRGRPPRLPRPRPRPDLNPRP when tested on Escherichia coli TOP10.
0.843

Name the value of shrunken log2 fold change reported for RRIRQRPPRLPRPRPRPRFLPRP when tested on Escherichia coli TOP10.
-0.0439

Name the value of shrunken log2 fold change reported for RRIRQRPPRLPRPRPRPIGNPRP when tested on Escherichia coli TOP10.
0.0843

Name the value of shrunken log2 fold change reported for RRIRHRPPRLPRPRPRPKCNPRP when tested on Escherichia coli TOP10.
-0.00178

Name the value of shrunken log2 fold change reported for RRIRHRPPRLPRPRPRPDIFPRP when tested on Escherichia coli TOP10.
-0.223

Name the value of shrunken log2 fold change reported for RRIRTRPPRLPRPRPRPYLKPRP when tested on Escherichia coli TOP10.
-0.27

Name the value of shrunken log2 fold change reported for RRIRWRPPRLPRPRPRPDQSPRP when tested on Escherichia coli TOP10.
0.0237

Name the value of shrunken log2 fold change reported for RRIRQRPPRLPRPRPRPPWGPRP when tested on Escherichia coli TOP10.
0.242

Name the value of shrunken log2 fold change reported for RRIRHRPPRLPRPRPRPCEEPRP when tested on Escherichia coli TOP10.
0.0167

Name the value of shrunken log2 fold change reported for RRIRGRPPRLPRPRPRPWRYPRP when tested on Escherichia coli TOP10.
0.122

Name the value of shrunken log2 fold change reported for RRIRERPPRLPRPRPRPIFDPRP when tested on Escherichia coli TOP10.
-0.349

Name the value of shrunken log2 fold change reported for RRIRVRPPRLPRPRPRPMHDPRP when tested on Escherichia coli TOP10.
-0.134

Name the value of shrunken log2 fold change reported for RRIRDRPPRLPRPRPRPVYFPRP when tested on Escherichia coli TOP10.
-0.447

Name the value of shrunken log2 fold change reported for RRIRNRPPRLPRPRPRPDEKPRP when tested on Escherichia coli TOP10.
-0.133

Name the value of shrunken log2 fold change reported for RRIRYRPPRLPRPRPRPGTAPRP when tested on Escherichia coli TOP10.
-0.39

Name the value of shrunken log2 fold change reported for RRIRERPPRLPRPRPRPRDLPRP when tested on Escherichia coli TOP10.
0.023

Name the value of shrunken log2 fold change reported for RRIRRRPPRLPRPRPRPSPFPRP when tested on Escherichia coli TOP10.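 Also: peptides expressed intracellularly from a pBAD plasmid library in pooled LB shake-flask culture, induced with 0.3% L-arabinose, DNA abundance read by NGS, three biological replicates, DESeq2 with apeglm shrinkage.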
0.292
